TEST_SYSTEM: T1, C1r-CCP2-SP, recombinant autoactivated domain truncation of human C1r (human, UniProt P00736 375-703)
T1 sequence: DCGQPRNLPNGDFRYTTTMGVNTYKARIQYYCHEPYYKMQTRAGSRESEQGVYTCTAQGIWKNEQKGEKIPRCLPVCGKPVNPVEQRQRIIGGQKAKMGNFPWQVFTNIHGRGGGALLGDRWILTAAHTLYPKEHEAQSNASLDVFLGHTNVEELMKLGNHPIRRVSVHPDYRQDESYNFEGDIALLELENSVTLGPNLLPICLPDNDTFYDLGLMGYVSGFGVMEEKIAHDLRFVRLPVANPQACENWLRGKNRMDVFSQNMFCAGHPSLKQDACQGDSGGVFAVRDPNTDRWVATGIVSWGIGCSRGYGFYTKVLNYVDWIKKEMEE
METHOD_SUMMARY: SPR
Tag: 1 if measured koff is not below 0.0003 s⁻¹, 0 if it is.

INPUT: Evaluate BBK32-C T242A (domain or fragment, B. burgdorferi B31, UniProt O50835 206-348, looked up) SNRYQSYLEGVKYNVDSAIQTITKIYNTYTLFSTKLAQMYSTRLDNFAKAKAKEEAAKFTKEDLEKNFKTLLNYIQVSVKTAANFVYINDTHAKRKLENIEAEIKTLIAKIKEQSNLYEAYKAIVTSILLMRDSLKEVQGIID : koff at minimum 0.0003 s⁻¹?
OUTPUT: 0

INPUT: I'd appreciate it if you could say whether BBK32-C Y245A (domain or fragment, B. burgdorferi B31, UniProt O50835 206-348, looked up) SNRYQSYLEGVKYNVDSAIQTITKIYNTYTLFSTKLTQMASTRLDNFAKAKAKEEAAKFTKEDLEKNFKTLLNYIQVSVKTAANFVYINDTHAKRKLENIEAEIKTLIAKIKEQSNLYEAYKAIVTSILLMRDSLKEVQGIID has koff at least equal to 0.0003 s⁻¹.
OUTPUT: 1

INPUT: Assess whether reported koff for BBK32-C L236A-T239A (domain or fragment, B. burgdorferi B31, UniProt O50835 206-348, looked up) SNRYQSYLEGVKYNVDSAIQTITKIYNTYTAFSAKLTQMYSTRLDNFAKAKAKEEAAKFTKEDLEKNFKTLLNYIQVSVKTAANFVYINDTHAKRKLENIEAEIKTLIAKIKEQSNLYEAYKAIVTSILLMRDSLKEVQGIID sits at 0.0003 s⁻¹ or higher.
OUTPUT: 0

INPUT: hey, is koff for this one >= 0.0003 s⁻¹? BBK32-C K327A (domain or fragment, B. burgdorferi B31, UniProt O50835 206-348, looked up) SNRYQSYLEGVKYNVDSAIQTITKIYNTYTLFSTKLTQMYSTRLDNFAKAKAKEEAAKFTKEDLEKNFKTLLNYIQVSVKTAANFVYINDTHAKRKLENIEAEIKTLIAKIKEQSNLYEAYAAIVTSILLMRDSLKEVQGIID
OUTPUT: 1

INPUT: // inclusive: koff at least 0.0003 s⁻¹? input: BBK32-C T331A (domain or fragment, B. burgdorferi B31, UniProt O50835 206-348, looked up) SNRYQSYLEGVKYNVDSAIQTITKIYNTYTLFSTKLTQMYSTRLDNFAKAKAKEEAAKFTKEDLEKNFKTLLNYIQVSVKTAANFVYINDTHAKRKLENIEAEIKTLIAKIKEQSNLYEAYKAIVASILLMRDSLKEVQGIID
OUTPUT: 0

INPUT: Please tell me: is the binder BBK32-C R248A (domain or fragment, B. burgdorferi B31, UniProt O50835 206-348, looked up) SNRYQSYLEGVKYNVDSAIQTITKIYNTYTLFSTKLTQMYSTALDNFAKAKAKEEAAKFTKEDLEKNFKTLLNYIQVSVKTAANFVYINDTHAKRKLENIEAEIKTLIAKIKEQSNLYEAYKAIVTSILLMRDSLKEVQGIID at or over 0.0003 s⁻¹ in terms of koff?
OUTPUT: 1

INPUT: State whether the measured koff reaches 0.0003 s⁻¹, counting equality as reaching it, for BBK32-C R337A (residues 206–354) (domain or fragment, B. burgdorferi B31, UniProt O50835 206-354, looked up) SNRYQSYLEGVKYNVDSAIQTITKIYNTYTLFSTKLTQMYSTRLDNFAKAKAKEEAAKFTKEDLEKNFKTLLNYIQVSVKTAANFVYINDTHAKRKLENIEAEIKTLIAKIKEQSNLYEAYKAIVTSILLMADSLKEVQGIIDKNGVWY
OUTPUT: 0
